Assay system Cannabinoid receptor 1 (Rattus norvegicus, UniProt P20272); read-out recorded as Ki.
Output spec: scalar in nM, unitless text.

Recorded Ki, per entry:
• CCCCN(CC(=O)N1c2ccccc2-n2cccc2C1c1ccc(Cl)cc1)C(=O)C(C)Cl (stereo not given) = 45
• CCCCN(CC(=O)N1c2ccccc2-n2cccc2C1c1ccc(OC)cc1)C(=O)C1CCC1 (stereo not given) = 214
• CCCCN(CC(=O)N1c2ccccc2-n2cccc2C1c1ccc(OC)cc1)C(=O)C1CC1 (stereo not given) = 78
• CCCCN(CC(=O)N1c2ccccc2-n2cccc2C1c1ccc(OC)cc1)C(=O)C(C)Cl (stereo not given) = 46

API: the following record is the query input.
Task: API: value(readout=Ki, system=Cannabinoid receptor 1 (Rattus norvegicus, UniProt P20272)) for record COc1ccc(C2c3cccn3-c3ccccc3N2C(=O)CN(C(=O)C(C)Cl)C(C)C)cc1 (stereo not given)
Result: 220

---

TARGET_OR_TEST_SYSTEM: Cannabinoid receptor 1 (Rattus norvegicus)
Sequence (P20272 whole entry): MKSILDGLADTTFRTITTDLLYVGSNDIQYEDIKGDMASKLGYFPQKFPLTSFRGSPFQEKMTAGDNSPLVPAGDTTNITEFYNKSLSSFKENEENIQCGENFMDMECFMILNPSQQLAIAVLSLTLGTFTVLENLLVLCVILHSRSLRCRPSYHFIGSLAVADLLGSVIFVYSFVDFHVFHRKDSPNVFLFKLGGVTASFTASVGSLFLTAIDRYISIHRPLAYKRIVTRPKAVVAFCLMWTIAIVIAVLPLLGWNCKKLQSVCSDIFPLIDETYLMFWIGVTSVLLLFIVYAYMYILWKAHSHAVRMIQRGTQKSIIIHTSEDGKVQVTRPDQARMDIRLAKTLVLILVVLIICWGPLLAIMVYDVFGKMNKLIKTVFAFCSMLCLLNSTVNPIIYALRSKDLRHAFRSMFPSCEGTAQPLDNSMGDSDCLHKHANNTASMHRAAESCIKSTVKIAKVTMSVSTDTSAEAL
PROTOCOL_DESCRIPTION: Displacement of [3H]SR141716A from CB1 receptor in rat cerebellum membrane at 1 uM
Format: cell membranes
RECORDED_ENDPOINT: inhibition (%)
Output spec: scalar in %, unitless text.

Recorded inhibition, per entry:
- CCCCN(CC(=O)N1c2ccccc2-n2cccc2C1c1ccccc1OC)C(=O)C(C)Cl (stereo not drawn): 36
- CCCCN(CC(=O)N1c2ccccc2-n2cccc2C1CC)C(=O)C(C)Cl (stereo not drawn): 14
- CCCCN(CC(=O)N1c2ccccc2-n2cccc2C1c1cc(OC)ccc1OC)C(=O)C(C)Cl (stereo not drawn): 45
- CCCCN(CC(=O)N1c2ccccc2-n2cccc2C1C)C(=O)C(C)Cl (stereo not drawn): 15
- COc1ccc(C2c3cccn3-c3ccccc3N2C(=O)CNC(=O)C(C)Cl)cc1 (stereo not drawn): 25
- CCCCN(CC(=O)N1c2ccccc2-n2cccc2C1c1ccc(OC)cc1)C(C)=O (stereo not drawn): 31

Task: Param item = COc1ccc(C2c3cccn3-c3ccccc3N2C(=O)CN(C)C(=O)C(C)Cl)cc1 (stereo not drawn) ; retrieve measured inhibition.
Result: 46

Task: Param item = COc1ccc(C2c3cccn3-c3ccccc3N2C(=O)CN(C(=O)C(C)Cl)C2CC2)cc1 (stereo not drawn) ; retrieve measured inhibition.
Result: 40
